Test system: PC-3
Assay: Antiproliferative activity against human PC3 cells by MTT assay
Format: functional, cell-based
pIC50: −log10 of the molar value.
quantity.kind: pIC50

>  <structure.string>
COc1cc2c(cc1OC)[C@H](Cc1ccc(Oc3c4c(cc(OC)c3OC)-c3c(OC)c(OC)c(OC)c5c3[C@H](C4)N(C)CC5)cc1)N(C)CC2

>  <quantity.kind>
pIC50

>  <endpoint.value>
5.14

$$$$
>  <structure.string>
COc1cc2c(c(OC)c1OC)CCN(C)[C@H]2Cc1ccc(Oc2c(OC)c(OC)cc3c2cc2c4c(c(OC)c(OC)c(OC)c43)CCN2C)cc1

>  <quantity.kind>
pIC50

>  <endpoint.value>
5.22

$$$$
>  <structure.string>
COc1cc2c(cc1OC)[C@H](Cc1ccc(Oc3c4c(cc(OC)c3OC)-c3c(OC)c(OC)cc5c3[C@H](C4)N(C)CC5)cc1)N(C)CC2

>  <quantity.kind>
pIC50

>  <endpoint.value>
5.57

$$$$
>  <structure.string>
COc1cc2c(cc1OC)C1=Cc3c(cc(OC)c(OC)c3Oc3cc4c(cc3OC)-c3c(OC)c(OC)c(OC)c5c3[C@H](C4)N(C)CC5)CN1CC2

>  <quantity.kind>
pIC50

>  <endpoint.value>
4.93

$$$$
>  <structure.string>
COc1cc2c(c(Oc3ccc(C[C@H]4c5cc(OC)c6c(c5CCN4C)OCO6)cc3)c1OC)C[C@H]1c3c(c(OC)c(OC)c(OC)c3-2)CCN1C

>  <quantity.kind>
pIC50

>  <endpoint.value>
5.25

$$$$
>  <structure.string>
COc1cc2c(cc1OC)-c1cc3c(Oc4cc5c(cc4OC)-c4c(OC)c(OC)c(OC)c6c4[C@H](C5)N(C)CC6)c(OC)c(OC)cc3c(=O)n1CC2

>  <quantity.kind>
pIC50

>  <endpoint.value>
5.43

$$$$
>  <structure.string>
COc1cc2c(c(Oc3ccc(C[C@H]4c5cc(OC)c(OC)c(OC)c5CCN4C)cc3)c1OC)C[C@H]1c3c(c(OC)c(OC)c(OC)c3-2)CCN1C

>  <quantity.kind>
pIC50

>  <endpoint.value>
5.22

$$$$
>  <structure.string>
COc1cc2c(c(O)c1OC)CCN(C)[C@H]2Cc1ccc(Oc2c3c(cc(OC)c2OC)-c2c(OC)c(OC)cc4c2[C@H](C3)N(C)CC4)cc1

>  <quantity.kind>
pIC50

>  <endpoint.value>
5.23

$$$$
>  <structure.string>
COc1cc2c(c(O)c1OC)CC[N@@+](C)([O-])[C@H]2Cc1ccc(Oc2c3c(cc(OC)c2OC)-c2c(OC)c(OC)c(OC)c4c2[C@H](C3)N(C)CC4)cc1

>  <quantity.kind>
pIC50

>  <endpoint.value>
4.73

$$$$
>  <structure.string>
CC[C@@]1(O)C(=O)OCc2c1cc1n(c2=O)Cc2cc3ccccc3nc2-1

>  <quantity.kind>
pIC50

>  <endpoint.value>
5.16

$$$$
>  <structure.string>
COc1cc2c(c(Oc3ccc(C[C@H]4c5cc(OC)c(OC)c(OC)c5CC[N@@+]4(C)[O-])cc3)c1OC)C[C@H]1c3c(c(OC)c(OC)c(OC)c3-2)CCN1C

>  <quantity.kind>
pIC50

>  <endpoint.value>
4.87

$$$$
>  <structure.string>
COc1cc2c(c(Oc3ccc(C[C@H]4c5cc(OC)c(OC)c(OC)c5CC[N@+]4(C)[O-])cc3)c1OC)C[C@H]1c3c(c(OC)c(OC)c(OC)c3-2)CCN1C

>  <quantity.kind>
pIC50

>  <endpoint.value>
5.08

$$$$
>  <structure.string>
COc1cc2c(c3c1OCO3)CCN(C)[C@H]2Cc1ccc(Oc2c(OC)c(OC)cc3c2cc2c4c(c(OC)c(OC)c(OC)c43)CCN2C)cc1

>  <quantity.kind>
pIC50

>  <endpoint.value>
5.48

$$$$

----------
Catalogue of pIC50 values
System: PC-3
Test: Antiproliferative activity against human PC3 cells by MTT assay
Format: functional, cell-based
pIC50: −log10 of the molar value.
quantity.kind: pIC50

>  <structure.string>
COc1cc2c(c(O)c1OC)CCN(C)[C@H]2Cc1ccc(Oc2c3c(cc(OC)c2OC)-c2c(OC)c(OC)c(OC)c4c2[C@H](C3)N(C)CC4)cc1

>  <quantity.kind>
pIC50

>  <endpoint.value>
5.61

$$$$
>  <structure.string>
COc1cc2c(c(O)c1OC)CC[N@+](C)([O-])[C@H]2Cc1ccc(Oc2c3c(cc(OC)c2OC)-c2c(OC)c(OC)c(OC)c4c2[C@H](C3)N(C)CC4)cc1

>  <quantity.kind>
pIC50

>  <endpoint.value>
4.90

$$$$
>  <structure.string>
COc1cc2c(cc1OC)[C@H](Cc1ccc(Oc3c(OC)c(OC)cc4c3cc3c5c(cc(OC)c(OC)c54)CCN3C)cc1)N(C)CC2

>  <quantity.kind>
pIC50

>  <endpoint.value>
5.10

$$$$
>  <structure.string>
COc1cc2c(c(O)c1OC)CCN(C)[C@H]2Cc1ccc(Oc2c(OC)c(OC)cc3c2cc2c4c(c(OC)c(OC)c(OC)c43)CCN2C)cc1

>  <quantity.kind>
pIC50

>  <endpoint.value>
5.15

$$$$
>  <structure.string>
O=c1[nH]cc(F)c(=O)[nH]1

>  <quantity.kind>
pIC50

>  <endpoint.value>
4.66

$$$$
>  <structure.string>
COc1cc2c(cc1OC)[C@H](Cc1ccc(Oc3c(OC)c(OC)cc4c3cc3c5c(c(OC)c(OC)c(OC)c54)CCN3C)cc1)N(C)CC2

>  <quantity.kind>
pIC50

>  <endpoint.value>
5.59

$$$$
